Kd by entry:
Target: JAK1 JH2 (Homo sapiens (Human))
Sequence (P23458 583-855): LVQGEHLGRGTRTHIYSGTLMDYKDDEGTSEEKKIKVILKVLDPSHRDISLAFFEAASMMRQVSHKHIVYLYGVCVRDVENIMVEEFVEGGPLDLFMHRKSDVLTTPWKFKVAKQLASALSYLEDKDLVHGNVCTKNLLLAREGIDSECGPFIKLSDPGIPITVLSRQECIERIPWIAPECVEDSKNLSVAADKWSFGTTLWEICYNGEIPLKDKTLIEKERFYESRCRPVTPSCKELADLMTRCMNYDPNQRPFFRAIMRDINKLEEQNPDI
Assay: JAK1 JH2 binding (Kd, Table 2)
Settings: JH2 domain

These solved cases illustrate the format of a correct answer.
{"Molecule": "CNc1cc2nc3c(cnn13)C(=O)N[C@H](C)COCc1cc(c3ncn(C)c3c1)N2", "Kd": "1 to 10 µM"}
{"Molecule": "CNc1cc2nc3c(cnn13)C(=O)NC(C(F)(F)F)COCc1cc(c3nnn(C)c3c1)N2 (stereo not shown)", "Kd": "10 to 30 µM"}
{"Molecule": "CNc1cc2nc3c(cnn13)C(=O)O[C@H](C)COCc1cc(c3nnn(C)c3c1)N2", "Kd": "1 to 10 µM"}

Please look at the following molecule next.
Bench note: what Kd did CNc1cc2nn3c(cnc13)C(=O)N[C@H](C)COCc1cc(c3nn(C)cc3c1)N2 show?
0.01 to 1 µM

---

Biological target: TYK2 JH1 (Homo sapiens (Human), UniProt P29597)
Sequence (P29597 897-1176): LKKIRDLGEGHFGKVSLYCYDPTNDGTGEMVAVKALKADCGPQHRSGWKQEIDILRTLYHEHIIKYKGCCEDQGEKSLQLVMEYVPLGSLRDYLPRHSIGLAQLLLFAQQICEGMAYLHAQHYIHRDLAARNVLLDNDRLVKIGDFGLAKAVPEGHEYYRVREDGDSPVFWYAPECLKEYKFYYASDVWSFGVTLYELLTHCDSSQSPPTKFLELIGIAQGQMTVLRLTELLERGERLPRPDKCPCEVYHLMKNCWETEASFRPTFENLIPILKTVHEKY
Assay: TYK2 JH1 binding (Kd, Table 2)
Settings: JH1 domain
pKd: −log10 of the molar value.
Parameter pKd: see the listing below.

{"Compound": "COc1nc2cn3c(cnc13)C(=O)N[C@H](C)COCc1cc(c3nnn(C)c3c1)N2", "System tested": "TYK2 JH1 (Homo sapiens (Human), UniProt P29597)", "pKd": "≤ 4.52"}

Value lookup for pKd; key = CNc1cc2nn3c(cnc13)C(=O)N[C@H](C)C(C)OCc1cc(c3nnn(C)c3c1)N2 (stereo partly shown)
≤ 4.52

Given the entry [2H]C1([2H])OC[C@@H](C)NC(=O)c2cnc3c(NC)cc(nn23)Nc2cc1cc1c2nnn1C , report its measured pKd.
5.00 to 6.00

Data request, read-out pKd, for CNc1cc2nc3c(cnn13)C(=O)N[C@H](CO)COCc1cc(c3nnn(C)c3c1)N2
6.00 to 8.00

---

Biological target: JAK2 JH2 (Homo sapiens (Human))
Sequence (O60674 545-809): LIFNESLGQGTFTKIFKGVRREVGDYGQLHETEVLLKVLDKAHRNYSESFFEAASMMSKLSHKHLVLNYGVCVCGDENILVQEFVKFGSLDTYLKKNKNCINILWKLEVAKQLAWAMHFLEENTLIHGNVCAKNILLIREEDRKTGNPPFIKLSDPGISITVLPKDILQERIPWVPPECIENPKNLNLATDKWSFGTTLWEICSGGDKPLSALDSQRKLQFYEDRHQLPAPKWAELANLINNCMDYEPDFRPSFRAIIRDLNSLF
Assay: JAK2 JH2 binding (Kd, Table 2)
Conditions: JH2 domain
Each item that follows carries a reported Kd.

{"Mol smiles": "[2H]C1([2H])OC[C@@H](C)NC(=O)c2cnc3c(NC)cc(nn23)Nc2cc1cc1c2nnn1C", "System tested": "JAK2 JH2 (Homo sapiens (Human))", "Result": "1 to 10 µM"}
{"Mol smiles": "CNc1cc2nn3c(cnc13)C(=O)N[C@H](C)COCc1cc(c3c(c1)ncn3C)N2", "System tested": "JAK2 JH2 (Homo sapiens (Human))", "Result": "1 to 10 µM"}
{"Mol smiles": "CNc1cc2nn3c(cnc13)C(=O)N[C@H](C)COCc1cc(c3nn(C)nc3c1)N2", "System tested": "JAK2 JH2 (Homo sapiens (Human))", "Result": "1 to 10 µM"}
{"Mol smiles": "CNc1cc2nc3c(cnn13)C(=O)N[C@H](C)COCc1cc(c3nnn(C)c3c1)N2", "System tested": "JAK2 JH2 (Homo sapiens (Human))", "Result": "≥ 30 µM"}
{"Mol smiles": "CNc1cc2nn3c(cnc13)C(=O)N[C@H](C)COCc1cc(c3c(c1)nnn3C)N2", "System tested": "JAK2 JH2 (Homo sapiens (Human))", "Result": "1 to 10 µM"}

Field request: Kd | item: CNc1cc2nn3c(cnc13)C(=O)N[C@H](C)COCc1cc(c3nnn(C)c3c1)N2
10 to 30 µM

Fill blank: measured Kd of the compound CNc1cc2nc3c(cnn13)C(=O)N[C@H](C)COCc1cc(c3nn(C)nc3c1)N2 is ____.
10 to 30 µM

Kd for CNc1cc2nc3c(cnn13)C(=O)N[C@H](C)COCc1cc(c3c(c1)nnn3C)N2 ?
≥ 30 µM

---

Measured Kd, listed per entry for reference.
Target: JAK1 JH2 (Homo sapiens (Human))
Assay: JAK1 JH2 binding (Kd, Table 2)
Conditions: JH2 domain

{"Molecule": "CNc1cc2nc3c(cnn13)C(=O)N[C@H](C)COCc1cc(c3nn(C)nc3c1)N2 [Compound 34]", "Kd": "0.01 to 1 µM"}

Recorded Kd for CNc1cc2nn3c(cnc13)C(=O)O[C@H](C)COCc1cc(c3nnn(C)c3c1)N2 [Compound 3] , please?
1 to 10 µM

Which value of Kd has been reported for COc1nc2cn3c(cnc13)C(=O)N[C@H](C)COCc1cc(c3nnn(C)c3c1)N2 [Compound 79] in the records?
≥ 30 µM

I am curious: what Kd value has been reported for CNc1cc2nc3c(cnn13)C(=O)N[C@H](C)COCc1cc(c3c(c1)ncn3C)N2 [Compound 9] ?
1 to 10 µM

Give its Kd value. Item: CNc1cc2nn3c(cnc13)C(=O)N[C@H](C)COCc1cc(c3c(cnn3C)c1)N2 [Compound 14]
10 to 30 µM

Any idea what Kd was measured for CNc1cc2nc3c(cnn13)C(=O)N[C@H](CO)[C@@H](C)OCc1cc(c3nnn(C)c3c1)N2 [Compound 15] ?
1 to 10 µM

Requested read-out: Kd. Entry: CNc1cc2nc3c(cnn13)C(=O)N[C@H](C)[C@H](C)OCc1cc(c3c(c1)nnn3C)N2 [Compound 93]
1 to 10 µM

Given the molecule CNc1cc2nc3c(cnn13)C(=O)N[C@H](C)COCc1cc(c3cnn(C)c3c1)N2 [Compound 52] , what is its reported Kd?
1 to 10 µM

---

Listed here are compounds together with their documented pKd.
Molecular target: JAK1 JH2 (Homo sapiens (Human))
Assay: JAK1 JH2 binding (Kd, Table 2)
Conditions: JH2 domain
pKd: −log10 of the molar value. Structures can show the parent of a compound that is named as a salt.

These recorded examples may help you get a feel for the data.
{"Compound": "CNc1cc2nn3c(cnc13)C(=O)N[C@H](C)COCc1cc(c3c(c1)ncn3C)N2 [Compound 8]", "pKd": "6.00 to 8.00"}
{"Compound": "CNc1cc2nn3c(cnc13)C(=O)N[C@H](C)COCc1cc(cc3cn[nH]c13)N2 [Compound 98]", "pKd": "6.00 to 8.00"}
{"Compound": "CNc1cc2nc3c(cnn13)C(=O)NC(C(F)(F)F)COCc1cc(c3c(c1)nnn3C)N2 (centres unmarked) [Compound 95]", "pKd": "≤ 4.52"}
{"Compound": "CNc1cc2nc3c(cnn13)C(=O)N[C@H](CO)COCc1cc(c3nnn(C)c3c1)N2 [Compound 91]", "pKd": "5.00 to 6.00"}
{"Compound": "CNc1cc2nc3c(cnn13)C(=O)N[C@H](C)COCc1cc(c3nnn(C)c3c1)N2 [Compound 33]", "pKd": "5.00 to 6.00"}

# get_value(readout= pKd, system= JAK1 JH2 (Homo sapiens (Human))) for CNc1cc2nn3c(cnc13)C(=O)N[C@H](C)COCc1cc(cc3nc[nH]c13)N2 [Compound 97, hydrochloride]
6.00 to 8.00

For the record Cc1nc2cnc3cn2c1C(=O)N[C@H](C)COCc1cc(c2nnn(C)c2c1)N3 [Compound 81] , what value of pKd is listed for JAK1 JH2 (Homo sapiens (Human))?
≤ 4.52

Query pKd on JAK1 JH2 (Homo sapiens (Human)) for CNc1cc2nn3c(cnc13)C(=O)N[C@H](C)COc1ccnc3ccc(cc13)N2 [Compound 60]
6.00 to 8.00

---

Molecular target: human TYK2 (JH2domain-pseudokinase) (Homo sapiens (Human), UniProt P29597)
Sequence (P29597 556-888): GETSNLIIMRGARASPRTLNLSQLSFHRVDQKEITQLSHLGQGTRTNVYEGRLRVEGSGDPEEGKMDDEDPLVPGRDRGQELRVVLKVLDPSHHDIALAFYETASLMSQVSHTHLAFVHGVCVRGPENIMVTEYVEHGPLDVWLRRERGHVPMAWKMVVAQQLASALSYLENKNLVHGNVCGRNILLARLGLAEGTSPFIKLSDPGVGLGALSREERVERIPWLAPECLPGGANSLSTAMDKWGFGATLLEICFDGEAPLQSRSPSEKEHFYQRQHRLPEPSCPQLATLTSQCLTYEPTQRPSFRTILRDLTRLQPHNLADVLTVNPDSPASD
Experiment: TYK2 JH2 domain binding assay (KINOMEscan)
Property label: Kd

Use the examples below as a reference point.
{"Compound": "C[C@@H]1COCc2cc(c3nnn(C)c3c2)Nc2ccn3ncc(c3n2)C(=O)N1 [Compound 54]", "Kd": "< 10 nM"}
{"Compound": "CNc1cc2nc3c(cnn13)C(=O)N[C@H](C)COCc1cc(c3cn(C)nc3c1)N2 [Compound 53]", "Kd": "< 10 nM"}
{"Compound": "Cc1nc2ccc3cn2c1C(=O)N[C@H](C)COCc1cc(c2nnn(C)c2c1)N3 [Compound 75]", "Kd": "10 to 1000 nM"}

Alright, here's another compound for you.
// returns reported Kd for input CNc1cc2nc3c(cnn13)C(=O)N[C@H](CO)[C@@H](C)OCc1cc(c3nnn(C)c3c1)N2 [Compound 15]
< 10 nM

---

Recorded measurements of pKd, one per entry
Biological target: JAK1 JH2 (Homo sapiens (Human))
Test: JAK1 JH2 binding (Kd, Table 2)
Conditions: JH2 domain
pKd: −log10 of the molar value. Counter-ions that a name gives are not always drawn.

These solved cases illustrate the format of a correct answer.
{"Compound": "CNc1cc2nn3c(cnc13)C(=O)N[C@H](C)C(C)OCc1cc(c3nnn(C)c3c1)N2 (some centres unmarked) [Compound 90]", "pKd": "6.00 to 8.00"}
{"Compound": "CNc1cc2nn3c(cnc13)C(=O)N[C@H](C)COCc1cc(c3nn(C)nc3c1)N2 [Compound 6]", "pKd": "6.00 to 8.00"}
{"Compound": "CNc1cc2nc3c(cnn13)C(=O)N[C@H](C)COCc1cc(c3cn(C)nc3c1)N2 [Compound 53]", "pKd": "6.00 to 8.00"}

Name the recorded pKd for CNc1cc2nn3c(cnc13)C(=O)N[C@H](C)COCc1cc(cc3[nH]ncc13)N2 [Compound 96, hydrochloride] .
6.00 to 8.00

Looking for the measured pKd of CNc1cc2nn3c(cnc13)C(=O)N[C@H](C)COCc1cc(c3ncn(C)c3c1)N2 [Compound 10] , can you help?
5.00 to 6.00

pKd for CNc1cc2nn3c(cnc13)C(=O)N[C@H](C)COCc1cc(c3cnn(C)c3c1)N2 [Compound 12] ?
6.00 to 8.00

Requested read-out: pKd. Entry: CNc1cc2nc3c(cnn13)C(=O)N[C@H](C)[C@H](C)OCc1cc(c3nnn(C)c3c1)N2 [Compound 38]
5.00 to 6.00

Sample CNc1cc2nc3c(cnn13)C(=O)N[C@H](C)[C@@H](C)OCc1cc(c3c(c1)nnn3C)N2 [Compound 94] — what was its pKd?
4.52 to 5.00
